# target entity: Cdc25B catalytic domain (Homo sapiens, UniProt P30305)
# Sequence (P30305 374-551 limits assumed): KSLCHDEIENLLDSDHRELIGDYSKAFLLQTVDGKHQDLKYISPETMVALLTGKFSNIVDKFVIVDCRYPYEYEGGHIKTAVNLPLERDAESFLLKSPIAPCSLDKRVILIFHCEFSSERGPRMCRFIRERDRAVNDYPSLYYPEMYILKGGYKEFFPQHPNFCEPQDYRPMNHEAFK
readout type: IC50 (nM)
Output spec: scalar in nM, unitless text.

O=C1C(Cl)=C(NCCN2CCOCC2)C(=O)c2nccnc21 [WDP1263]: 500
COc1ccnc2c1C(=O)C(NCCN1CCOCC1)=C(F)C2=O [WDP1149]: 5300

Record O=C1C(Cl)=C(NCCN2CCOCC2)C(=O)c2c(Cl)ccnc21 [WDP1079] has Cdc25B catalytic domain (Homo sapiens, UniProt P30305) IC50 equal to 1100
